The entries below come with measured Plate 1 (% inhibition) values attached.
# assay system: His6-AspH315–758 (human aspartate/asparagine-β-hydroxylase, AspH) (Homo sapiens)
# Construct: N-Terminally His6-tagged human AspH315–758 (His6-AspH315–758) was produced in E. coli BL21 (DE3) cells; made in house; host or cells: E. coli BL21 (DE3), pET-28a(+) vector
# Sequence (Q12797 315-758): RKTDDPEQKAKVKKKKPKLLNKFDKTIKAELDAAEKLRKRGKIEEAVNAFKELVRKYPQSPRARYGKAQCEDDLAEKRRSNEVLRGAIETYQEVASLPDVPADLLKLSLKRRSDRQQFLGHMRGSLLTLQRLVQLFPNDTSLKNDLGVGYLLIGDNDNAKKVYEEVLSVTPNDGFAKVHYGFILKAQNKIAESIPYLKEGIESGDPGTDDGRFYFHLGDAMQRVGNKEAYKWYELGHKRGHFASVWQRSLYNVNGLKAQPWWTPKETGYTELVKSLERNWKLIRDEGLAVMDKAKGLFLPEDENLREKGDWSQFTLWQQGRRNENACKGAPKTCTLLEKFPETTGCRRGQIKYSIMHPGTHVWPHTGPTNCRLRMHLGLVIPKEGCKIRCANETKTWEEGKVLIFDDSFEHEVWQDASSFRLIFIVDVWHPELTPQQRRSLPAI
# protocol summary: SPE-MS AspH inhibition assay (LOPAC screen at fixed 20 μM and IC50 dose-response), hydroxylation of cyclic peptide hFX-CP101–119
# Type: biochemical
# conditions: LOPAC compound at fixed 20 uM; plate 1, normalised to DMSO and 2,4-PDCA controls
Where a name gives a salt, the structure may show the parent alone.
// return numeric value only (unit: %, not printed)

- CC(=O)NC[C@H]1CN(c2ccc(N3CCOCC3)c(F)c2)C(=O)O1 [Linezolid]: -10.54
- CCc1cccc(N(C)C(N)=Nc2cccc3ccccc23)c1 [CNS-1102]: -9.21
- CCN1CCc2nc(N)oc2CC1.Cl.Cl [B-HT 933 dihydrochloride]: -9.80
- NC1(C(=O)O)CCc2cc(C(=O)O)ccc21 (stereo not shown) [AIDA]: 3.11
- N[C@H]1CON=C1O [L-Cycloserine]: -2.43

Ask | Given Cl.c1ccc2nc(C3=NCCN3)ccc2c1 [BU224 hydrochloride] , state its recorded Plate 1 (% inhibition).
Reply | -5.25

Ask | Looking for the measured Plate 1 (% inhibition) of N=C(N)NC(=O)c1nc(Cl)c(N)nc1N [Amiloride hydrochloride] , can you help?
Reply | 4.62

Ask | Param item = Nc1ccc(N2C(=O)c3ccccc3C2=O)c(Cl)c1 [N-(4-Amino-2-chlorophenyl)phthalimide] ; retrieve measured Plate 1 (% inhibition).
Reply | -9.54

Ask | Form field: reported Plate 1 (% inhibition) of COc1ccc2[nH]c3c(c2c1)CCNC3
Reply | -3.29

Ask | What value of Plate 1 (% inhibition) has been reported for the following molecule? CC(C[N+](C)(C)C)OC(N)=O (stereo not shown) [Bethanechol chloride]
Reply | -8.85

----------
# assay system: His6-AspH315–758 (human aspartate/asparagine-β-hydroxylase, AspH) (Homo sapiens)
# Construct: N-Terminally His6-tagged human AspH315–758 (His6-AspH315–758) was produced in E. coli BL21 (DE3) cells; made in house; host or cells: E. coli BL21 (DE3), pET-28a(+) vector
# protocol summary: SPE-MS AspH inhibition assay (LOPAC screen at fixed 20 μM and IC50 dose-response), hydroxylation of cyclic peptide hFX-CP101–119
# Assay type: biochemical
# conditions: LOPAC Plate 4, compound at 20 uM; read-out: % inhibition
Counter-ions that a name gives are not always drawn.
measured endpoint: inhibition at 20 µM (%)
Form entry: value (%) — number only.

Ask | Query (compound): CCN(CC)CCOC(=O)c1ccc(N)cc1 [Procaine hydrochloride] ; field requested: inhibition at 20 µM
Reply | 5.88

Ask | Using the record for CCCCNc1ccc(C(=O)OCCN(C)C)cc1 [Tetracaine hydrochloride] , report its inhibition at 20 µM.
Reply | -11.7

Ask | Using the record for CCN(CC)CCCC(C)Nc1c2ccc(Cl)cc2nc2ccc(OC)cc12 (stereo not drawn) [Quinacrine dihydrochloride] , report its inhibition at 20 µM.
Reply | -9.1

The origin of these recorded values is paper PMC7251097.
